experimental-setup: acidic group
readout-name: pKa

[
  {
    "structure-smiles-string": "CCN(CC)S(=O)(=O)c1ccsc1C(=O)O",
    "readout-name": "pKa",
    "reported": 2.77
  },
  {
    "structure-smiles-string": "CC(C)(C)c1ccc(C(=O)/C=C/C(=O)O)cc1",
    "readout-name": "pKa",
    "reported": 3.42
  },
  {
    "structure-smiles-string": "Cc1[nH]c2ccccc2c1C(=O)O",
    "readout-name": "pKa",
    "reported": 5.89
  },
  {
    "structure-smiles-string": "CCO[C@H]1C[C@@H]1C(=O)O",
    "readout-name": "pKa",
    "reported": 4.46
  },
  {
    "structure-smiles-string": "O=C1CCC(=O)C1=O",
    "readout-name": "pKa",
    "reported": 8.48
  },
  {
    "structure-smiles-string": "COc1ccc([Se]O)c([N+](=O)[O-])c1",
    "readout-name": "pKa",
    "reported": 10.7
  },
  {
    "structure-smiles-string": "Cn1cc([NH3+])cc1C(=O)O",
    "readout-name": "pKa",
    "reported": 3.5
  },
  {
    "structure-smiles-string": "Cc1c(O)cccc1C(=O)O",
    "readout-name": "pKa",
    "reported": 3.83
  },
  {
    "structure-smiles-string": "O/N=C/NO",
    "readout-name": "pKa",
    "reported": 10.7
  },
  {
    "structure-smiles-string": "CO/C(C)=C\\C(=O)O",
    "readout-name": "pKa",
    "reported": 5.81
  },
  {
    "structure-smiles-string": "Oc1cccc2nnccc12",
    "readout-name": "pKa",
    "reported": 7.4
  },
  {
    "structure-smiles-string": "Nc1ccc(S(=O)(=O)Nc2cccnn2)cc1",
    "readout-name": "pKa",
    "reported": 7.06
  },
  {
    "structure-smiles-string": "O=S(=O)([N-]c1ncccn1)c1ccc(O)cc1",
    "readout-name": "pKa",
    "reported": 9
  },
  {
    "structure-smiles-string": "O=C(O)Cc1cccs1",
    "readout-name": "pKa",
    "reported": 3.85
  },
  {
    "structure-smiles-string": "CCOC(=O)Cc1nc2ccccc2[nH]1",
    "readout-name": "pKa",
    "reported": 13.1
  }
]
